Just for reference, ChEMBL document CHEMBL1157539 is where these values come from.

- test_name: GSK_TCMDC: Inhibition Frequency Index (IFI). The number of non-kinase HTS assays where a compound showed > 50 % inhibition, expressed as a percentage of the number of such assays in which the compound was tested
- Format: functional
Over roughly 13,000 compounds, “IFI” has its median near 4; the highest 2% begin near 17. Many of the other results were omitted from the sample, so the highest values are more common in it than they were.
IFI under 6% gets Satisfied, anything at or over 6% gets Not satisfied.

compound=Cc1cccc(Nc2c(-c3cc(Br)ccc3O)nc3ncccn23)c1 class="Not satisfied"
compound=COc1ccc2nccc(N3CCN(CCNCc4ccc5c(n4)NC(=O)CO5)CC3)c2c1 class=Satisfied
compound=CC1CCN(Cc2cccc(C(=O)NCc3ccc(F)c(-c4cccc(CN5CCN[C@@H](C)C5)c4)c3)c2)CC1 class=Satisfied
compound=C=CCc1ccc(C[C@H](NC(=O)OC(C)(C)C)C(=O)OC)cc1 class="Not satisfied"
compound=CC(C)(C)c1ccc(C(=O)Nc2ccc3nc4c(c(N)c3c2)CCCC4)cc1 class=Satisfied
compound=Clc1ccc(CNc2ccnc(NCc3cccnc3N3CCCC3)n2)c(Cl)c1 class="Not satisfied"
compound="O=C(NCC1CCC(CNCCc2ccccc2)CC1)Nc1ccc(Cl)c(Cl)c1 (stereo not drawn)" class=Satisfied
compound=COc1ccc(CNCc2ccc(-c3cccc(-c4nc5cc(C(F)(F)F)ccc5[nH]4)c3)cc2)cc1 class="Not satisfied"
compound=COc1ccccc1CCNC(=O)c1cnc(N2CCN(c3ccncc3)CC2)c(Cl)c1 class="Not satisfied"
compound=CCSc1ccc(C)cc1CON1C(N)=NC(N)=NC1(C)C class="Not satisfied"
compound=CCc1cn(CCc2ccccc2)c2ccc(C(=O)N[C@@H](Cc3ccccc3)[C@H](O)CNC(C)(C)CCCC(C)C)cc12 class="Not satisfied"
compound=CN(C)Cc1cccc(-c2ccc3ccnc(N)c3c2)c1 class=Satisfied
compound=O=C(CNCC1CCCCC1)Nc1cc(C(F)(F)F)ccc1Cl class=Satisfied
compound=Clc1ccc(Cl)c2[nH]c(CNCCCNc3nc4ccccc4[nH]3)cc12 class=Satisfied
compound=C[C@H]1CN(Cc2ccc(-c3cccc(CNC(=O)c4cccc(C(=O)c5ccc(Cl)c(Cl)c5)c4)c3)s2)CCN1 class="Not satisfied"
compound=CC(C)(C(=O)Nc1ccc(N2CCC3(CCCN(CC4CC4)C3)CC2)c(Cl)c1)c1cccc(C(F)(F)F)c1 class="Not satisfied"
compound="CC(C)N1CCN(C(CN2CCN(CCCOc3cccc(F)c3)CC2)c2ccc(F)cc2)CC1 (stereo not drawn)" class="Not satisfied"
compound=CC(C)[C@H](NC(=O)c1c(F)cccc1F)C(=O)Nc1ccc(Cc2nc3ccccc3s2)cc1 class=Satisfied
compound=CC(C)CCCC(C)(C)NC[C@@H](O)[C@H](Cc1ccccc1)NC(=O)c1cccc(CCC2CC2)c1 class="Not satisfied"
compound="COc1cc(Cc2cnc(N)nc2N)cc(CC(C)O)c1O (stereo not drawn)" class=Satisfied
compound=CCCCc1cc(O)c2c(c1)OC(C)(C)C=C2C1=CCN(Cc2ccccc2)CC1 class=Satisfied
compound=Oc1ccc2nc(NCCCc3ccccc3)nc(NCCc3ccccc3)c2c1 class="Not satisfied"
compound=Nc1c2c(nc3ccc(NC(=O)c4ccccc4)cc13)CCCC2 class=Satisfied
compound=CC(C)(C)OC(=O)N[C@@H](Cc1ccccc1)C(=O)Nc1cccc(-c2cccc(NC(=O)[C@H](Cc3ccccc3)NC(=O)OC(C)(C)C)c2)c1 class=Satisfied
compound="CC1CN(c2cccc3c2nc(-c2cncc(C#N)c2)n3CCNCc2ccccc2)CC(C)O1 (stereo not drawn)" class=Satisfied
compound=CC(C)CCCC(C)(C)NC[C@@H](O)[C@H](Cc1ccccc1)NC(=O)c1cccc(OCC2CC2)c1 class="Not satisfied"
compound=COc1ccc(CNC2Cc3ccccc3C2)cc1-c1ccc(OC)c(S(=O)(=O)NCCN2CCCC2)c1 class="Not satisfied"
compound="CC(C)N1CCN(C(CN2CCN(CCCOc3ccc4ccccc4c3)CC2)c2ccc(F)cc2)CC1 (stereo not drawn)" class="Not satisfied"
compound=CC(C)Oc1ccc(CCCON2C(=N)N=C(N)NC2(C)C)cc1 class=Satisfied
compound=CON=Cc1sc(CNCCCN=c2cc(O)c3ccccc3[nH]2)c(C)c1Br class="Not satisfied"
compound="CC(C)(C(=O)Nc1ccc(C2CCC(NCC3CC3)CC2)c(Cl)c1)c1cccc(OC(F)F)c1 (stereo not drawn)" class="Not satisfied"
compound=N=C(N)Nc1nc(-c2ccc(NC(=N)N3CCC[C@H]3CN3CCCC3)cc2)cs1 class=Satisfied
compound=Cc1ccc(O)cc1C[C@@H]1C(=O)CC[C@@]2(C)[C@H]1CC[C@]2(C)O class=Satisfied
compound=COc1ccc(-c2ccc(NC(=O)c3cccc(Cl)c3)cc2)cc1CN1CCN(C)CC1 class="Not satisfied"
compound=COC(=O)C(c1ccc(NC(=O)[C@H](CC(C)C)NC(=O)OC(C)(C)C)cc1)c1ccc(NC(=O)[C@H](CC(C)C)NC(=O)OC(C)(C)C)cc1 class=Satisfied
compound=COc1ccc2[nH]c(C(=O)Nc3ccc4[nH]c(-c5ccccc5)nc4c3)cc2c1 class="Not satisfied"
